Entries and their measured Ki follow.
target: CDK2/Cyclin E1 full length (Homo sapiens (Human), UniProt P24941); test: CDK2/Cyclin E1 full length mobility shift assay
reported endpoint: Ki (nM)

| compound | measurement target | observed |
| --- | --- | --- |
| C[C@]1(O)CC[C@H](NC(=O)O[C@H]2CC[C@@H](c3cc(NC(=O)Cc4ccccc4)n[nH]3)C2)CC1 | CDK2/Cyclin E1 full length (Homo sapiens (Human), UniProt P24941) | 1.44 |
| CC[C@H](C)NC(=O)O[C@@H]1CC[C@H](c2cc(NC(=O)Cc3ccno3)n[nH]2)C1 | CDK2/Cyclin E1 full length (Homo sapiens (Human), UniProt P24941) | 0.37 |
| Cc1cc(CC(=O)Nc2cc([C@H]3CC[C@@H](OC(=O)N4CCC4C)C3)[nH]n2)on1 (single isomer, unassigned) [Example 590] | CDK2/Cyclin E1 full length (Homo sapiens (Human), UniProt P24941) | 2.86 |
| Cc1cc(CC(=O)Nc2cc([C@H]3CC[C@@H](OC(=O)NC4(CC(F)(F)F)CC4)C3)[nH]n2)on1 | CDK2/Cyclin E1 full length (Homo sapiens (Human), UniProt P24941) | 0.29 |
